Biological target: BPTF PHD domain Y23M
Assay: ITC
pKd: −log10 of the molar value. Non-standard residues stand in square brackets, D forms with d. No end group written: not given here. Lys(Me3) = C[N+](C)(C)CCCC[C@H](N)C(=O)O
attributeMeasured: pKd

# binder, number
records = [
    ("ART[Lys(Me3)]QTARKSTGGY [histone H3 tail peptide trimethylated at K4 (H3K4me3), ARTX… with X = Kme3]", 5.12),
]
